- subject_of_test: Estrogen receptor (Homo sapiens) (UniProt P03372)
- Sequence (P03372 whole entry, looked up): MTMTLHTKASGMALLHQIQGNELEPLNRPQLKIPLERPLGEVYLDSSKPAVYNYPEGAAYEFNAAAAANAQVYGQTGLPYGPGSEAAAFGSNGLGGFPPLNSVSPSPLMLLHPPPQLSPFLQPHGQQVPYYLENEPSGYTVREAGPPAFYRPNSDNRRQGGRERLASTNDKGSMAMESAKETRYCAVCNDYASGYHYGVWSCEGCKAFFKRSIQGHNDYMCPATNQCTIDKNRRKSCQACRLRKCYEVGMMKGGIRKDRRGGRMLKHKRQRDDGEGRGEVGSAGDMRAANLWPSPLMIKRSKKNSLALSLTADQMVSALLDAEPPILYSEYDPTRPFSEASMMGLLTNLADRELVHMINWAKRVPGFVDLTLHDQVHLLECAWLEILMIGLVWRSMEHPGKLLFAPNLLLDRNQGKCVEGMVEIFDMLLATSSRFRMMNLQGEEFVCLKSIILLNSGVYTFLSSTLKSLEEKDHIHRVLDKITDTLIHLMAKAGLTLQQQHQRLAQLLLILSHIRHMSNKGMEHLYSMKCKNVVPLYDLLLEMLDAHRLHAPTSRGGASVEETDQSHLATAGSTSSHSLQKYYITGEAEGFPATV
- assay_info: ATG_ERa_TRANS: Attagene TRANS-FACTORIAL HepG2 Assay for human Estrogen Receptor alpha (ERa) (AID 2282970)
- condition_notes: HepG2 Attagene TRANS ERa GAL4 reporter, mRNA
Results filed as inconclusive are left out. Active and inactive are the calls of the source. Rule for the calls: active = hit-call score of the fitted dose curve at least 0.9, where 1 is the maximum; inconclusive = response in the unintended direction; inactive = score below 0.9.
The categories you may choose from are active, inactive

Please state the recorded outcome for this compound: `CCC(C)(C)c1ccc(O)cc1` active

Please state the recorded outcome for this compound: `OCC(F)(F)OC(F)(F)C(F)(F)OC(F)(F)CO` active

Please state the recorded outcome for this compound: `CC(C)(C)c1ccccc1OP(=O)(Oc1ccccc1)Oc1ccccc1` active

Please state the recorded outcome for this compound: `CCCCN(CC)C(=O)SCCC` active

Please state the recorded outcome for this compound: OCC1CO1 (stereo not drawn) inactive

Please state the recorded outcome for this compound: `CC(=O)c1ccc(-c2ccccc2)cc1` active

Please state the recorded outcome for this compound: `Cc1ccc(N)cc1N` inactive

Please state the recorded outcome for this compound: `Cc1ccc(O)cc1C` active

Please state the recorded outcome for this compound: `Cc1c([N+](=O)[O-])cc2c(c1[N+](=O)[O-])C(C)(C)CC2(C)C` inactive

Please state the recorded outcome for this compound: `Nc1ccc2ccccc2c1` inactive

Please state the recorded outcome for this compound: `c1nc[nH]n1` active

Please state the recorded outcome for this compound: `Clc1ccc(Oc2ccccc2)cc1` active

Please state the recorded outcome for this compound: `O=C(O)C=CC(F)(C(F)(F)F)C(F)(F)F` inactive

Please state the recorded outcome for this compound: `CCOC(=O)c1ccccc1C(=O)OCC` inactive

Please state the recorded outcome for this compound: CCOP(=S)(NC(C)C)Oc1ccccc1C(=O)OC(C)C (stereo not drawn) active

Please state the recorded outcome for this compound: CC(O)C(F)(F)C(F)(F)F (stereo not drawn) inactive

Please state the recorded outcome for this compound: `O=S(=O)(c1ccc(O)cc1)c1ccc(O)cc1` active

Please state the recorded outcome for this compound: `O=c1ssc(Cl)c1Cl` inactive

Please state the recorded outcome for this compound: O=P(OCC(Br)CBr)(OCC(Br)CBr)OCC(Br)CBr (stereo not drawn) inactive

Please state the recorded outcome for this compound: `c1cc2c3c(cccc3c1)CC2` inactive

Please state the recorded outcome for this compound: `Cc1ccc2c(c1N)C(=O)c1ccccc1C2=O` active

Please state the recorded outcome for this compound: `O=P(Oc1ccccc1)(Oc1ccccc1)Oc1ccccc1` inactive

Please state the recorded outcome for this compound: `CCCCc1ccc(O)cc1` active

###

- Read-out: Vascular cell adhesion molecule 1 (VCAM1), VCAM1 (gene 7412)
- assay_info: BSK_4H_VCAM1: BioMAP Diversity Plus: 4H Assay for Vascular cell adhesion molecule 1 (VCAM1) Biomarker Activity (AID 2283033);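 for outcome: cell-surface VCAM-1 protein measured by ELISA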
- condition_notes: primary human endothelial cells (HUVEC); actives raise or lower the signal
Calls of active or inactive are those of the source. The calls were made as follows: active = hit-call score of the fitted dose curve at least 0.9, where 1 is the maximum; inactive = score below 0.9.
The categories you may choose from are yes (active), no (inactive)

Please state the recorded outcome for this compound: `OCC(F)(F)OC(F)(F)C(F)(F)OC(F)(F)C(F)(F)OC(F)(F)CO` no

Please state the recorded outcome for this compound: CCC1(c2ccccc2)C(=O)N=C(O)NC1=O (stereo not given) no

Please state the recorded outcome for this compound: `N#Cc1cc([N+](=O)[O-])ccc1N` no

Please state the recorded outcome for this compound: `CC(C)(C)c1ccccc1OP(=O)(Oc1ccccc1)Oc1ccccc1` yes

Please state the recorded outcome for this compound: `Cc1ccc(O)cc1C` no

Please state the recorded outcome for this compound: `COP(=O)(O)OC` no

Please state the recorded outcome for this compound: `CCOP(=S)(OCC)SCSc1ccc(Cl)cc1` yes

Please state the recorded outcome for this compound: `CCCCCCCc1ccc(O)cc1` yes

Please state the recorded outcome for this compound: `CCCCN(CCCC)SN(C)C(=O)Oc1cccc2c1OC(C)(C)C2` yes

Please state the recorded outcome for this compound: `c1ccc2c(c1)sc1ccccc12` no

Please state the recorded outcome for this compound: O=P(OCC(Br)CBr)(OCC(Br)CBr)OCC(Br)CBr (stereo not given) yes

Please state the recorded outcome for this compound: ClC1=C(Cl)C2(Cl)C3C(Cl)C(Cl)CC3C1(Cl)C2(Cl)Cl (stereo not given) yes

Please state the recorded outcome for this compound: `O=C(O)C=CC(F)(C(F)(F)F)C(F)(F)F` no

Please state the recorded outcome for this compound: `O=C(O)C(F)(F)OC(F)(F)C(F)(F)OC(F)(F)F` no

Please state the recorded outcome for this compound: `CN(C)C(=O)Cl` no

Please state the recorded outcome for this compound: `CCN(CC)c1ccccc1` no

Please state the recorded outcome for this compound: CCOP(=S)(NC(C)C)Oc1ccccc1C(=O)OC(C)C (stereo not given) no

Please state the recorded outcome for this compound: `Cc1ccc(N)cc1N` no

Please state the recorded outcome for this compound: `Cc1c([N+](=O)[O-])cc2c(c1[N+](=O)[O-])C(C)(C)CC2(C)C` no

Please state the recorded outcome for this compound: FC(F)(F)C(F)(C(F)(F)F)C(F)(F)C(F)(F)CC1CO1 (stereo not given) no

###

- assay_info: Tanguay_ZF_120hpf_YSE_legacy: (Legacy) Oregon State University Tanguay Lab 120 Hour Post-fertilization zebrafish Assay for Yolk Sac Edema (AID 2283634)
Results filed as inconclusive are left out. Activity calls are given as the source filed them. How the source made its calls: active means hit-call score of the fitted dose curve at least 0.9, where 1 is the maximum; inconclusive means response in the unintended direction; inactive means score below 0.9.
The categories you may choose from are active, inactive

Please state the recorded outcome for this compound: `CCOC(=O)c1ccccc1C(=O)OCC` inactive

Please state the recorded outcome for this compound: OCC1CO1 (stereo not drawn) inactive

Please state the recorded outcome for this compound: CC(Cc1ccc(OCC(=O)O)cc1)NCC(O)c1csc(C(F)(F)F)n1 (stereo not drawn) inactive

Please state the recorded outcome for this compound: `CCCCN(CCCC)N=O` inactive

Please state the recorded outcome for this compound: ClC1=C(Cl)C2(Cl)C3C(Cl)C(Cl)CC3C1(Cl)C2(Cl)Cl (stereo not drawn) inactive

Please state the recorded outcome for this compound: `CCCCN(CCCC)SN(C)C(=O)Oc1cccc2c1OC(C)(C)C2` inactive

Please state the recorded outcome for this compound: `O=[N+]([O-])c1ccccc1` inactive

Please state the recorded outcome for this compound: O=P1(N(CCCl)CCCl)NCCCO1 (stereo not drawn) inactive

Please state the recorded outcome for this compound: `[N-]=[N+]=[N-]` inactive

Please state the recorded outcome for this compound: `Cc1ccc([N+](=O)[O-])cc1C` inactive

Please state the recorded outcome for this compound: `CCC(C)(C)c1ccc(O)cc1` active

Please state the recorded outcome for this compound: `CCCN(CCC)c1c([N+](=O)[O-])cc(C(C)C)cc1[N+](=O)[O-]` inactive

Please state the recorded outcome for this compound: `Cc1ccc(O)cc1C` inactive

Please state the recorded outcome for this compound: `COCCOCCO` inactive

Please state the recorded outcome for this compound: `O=C(O)C(Cl)Cl` inactive

Please state the recorded outcome for this compound: `Cc1cccc(N)c1` inactive

Please state the recorded outcome for this compound: `CC(C)(C)c1ccc(O)cc1` inactive

Please state the recorded outcome for this compound: `O=[N+]([O-])c1ccc(Cl)c(Cl)c1` inactive

###

- assay_info: CEETOX_H295R_ESTRADIOL: CeeTox H295R High-throughput Steroidogenesis Assay for Estradiol (AID 2283440);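 note: estradiol secreted into medium quantified by LC-MS/MS after dansyl derivatisation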
- condition_notes: actives raise or lower the signal
Activity calls are given as the source filed them. How the source made its calls: active means hit-call score of the fitted dose curve at least 0.9, where 1 is the maximum; inactive means score below 0.9.
The categories you may choose from are yes = active, no = inactive

Please state the recorded outcome for this compound: `Cc1ccc(O)cc1C` no

Please state the recorded outcome for this compound: `O=S(=O)(c1ccc(O)cc1)c1ccc(O)cc1` yes

Please state the recorded outcome for this compound: `Cc1ccc(N)cc1N` no

Please state the recorded outcome for this compound: `ClC(Cl)=C(c1ccc(Cl)cc1)c1ccccc1Cl` no

###

- assay_info: CCTE_Padilla_ZF_144hpf_TERATOSCORE: (Legacy) CCTE's 144 Hour Post-fertilization zebrafish Assay Teratoscore, Padilla Lab (AID 2283679)
Active and inactive are the calls of the source. The calls were made as follows: active = hit-call score of the fitted dose curve at least 0.9, where 1 is the maximum; inactive = score below 0.9.
The categories you may choose from are true = active, false = inactive

Please state the recorded outcome for this compound: `Cc1cccc(N)c1` false

Please state the recorded outcome for this compound: `CCOP(=S)(OCC)SCSCC` false

Please state the recorded outcome for this compound: `c1ccc2c(c1)Nc1ccccc1S2` true

Please state the recorded outcome for this compound: `[N-]=[N+]=[N-]` false

Please state the recorded outcome for this compound: ClC1=C(Cl)C2(Cl)C3C(Cl)C(Cl)CC3C1(Cl)C2(Cl)Cl (configuration not stated) true

Please state the recorded outcome for this compound: `ClC(Cl)c1ccccc1` true

Please state the recorded outcome for this compound: `CC(C)(C)c1ccc(O)cc1` true

###

- Read-out: Interleukin 17A (IL17A), IL17A (gene 3605)
- assay_info: BSK_BT_xIL17A: BioMAP Diversity Plus: BT Assay for Interleukin 17A (IL17A) Biomarker Activity (AID 2284229)
- condition_notes: primary human B cells with PBMC
Activity calls are given as the source filed them. Rule for the calls: active = hit-call score of the fitted dose curve at least 0.9, where 1 is the maximum; inactive = score below 0.9.
The categories you may choose from are TRUE (active), FALSE (inactive)

Please state the recorded outcome for this compound: `Nc1ccc([N+](=O)[O-])cc1Cl` FALSE

Please state the recorded outcome for this compound: CCOP(=S)(NC(C)C)Oc1ccccc1C(=O)OC(C)C (centres undefined) FALSE

Please state the recorded outcome for this compound: CCCCC(CC)COC(=O)c1c(Br)c(Br)c(Br)c(Br)c1C(=O)OCC(CC)CCCC (centres undefined) FALSE

Please state the recorded outcome for this compound: `Cc1ccc2c(c1N)C(=O)c1ccccc1C2=O` FALSE

Please state the recorded outcome for this compound: `COP(=O)(O)OC` FALSE

Please state the recorded outcome for this compound: O=S1(=O)OCC2C(CO1)C1(Cl)C(Cl)=C(Cl)C2(Cl)C1(Cl)Cl (centres undefined) TRUE

Please state the recorded outcome for this compound: `c1ccc2c(c1)sc1ccccc12` FALSE

Please state the recorded outcome for this compound: `CCOP(=S)(OCC)SCS(=O)(=O)CC` FALSE

Please state the recorded outcome for this compound: `N#Cc1cc([N+](=O)[O-])ccc1N` FALSE

Please state the recorded outcome for this compound: CC(Cl)CN(C)C (centres undefined) FALSE

Please state the recorded outcome for this compound: `CCOP(=S)(OCC)SCSc1ccc(Cl)cc1` FALSE

Please state the recorded outcome for this compound: COC(=O)C(F)(F)C(F)(F)OC(F)(C(F)(F)F)C(F)(F)OC(F)=C(F)F (centres undefined) FALSE

Please state the recorded outcome for this compound: O=P(OCC(Br)CBr)(OCC(Br)CBr)OCC(Br)CBr (centres undefined) TRUE

Please state the recorded outcome for this compound: `CCOP(=S)(S)OCC` FALSE

Please state the recorded outcome for this compound: `CC(C)(C)c1ccccc1OP(=O)(Oc1ccccc1)Oc1ccccc1` TRUE

Please state the recorded outcome for this compound: `CCOP(=S)(OCC)SCn1nnc2ccccc2c1=O` FALSE

Please state the recorded outcome for this compound: `O=C(O)C=CC(F)(C(F)(F)F)C(F)(F)F` FALSE

Please state the recorded outcome for this compound: `ClC(Cl)=C(c1ccc(Cl)cc1)c1ccccc1Cl` TRUE

Please state the recorded outcome for this compound: `OCC(F)(F)OC(F)(F)C(F)(F)OC(F)(F)C(F)(F)OC(F)(F)CO` FALSE
